Source of measurements: patent US20240317777A1

Molecular target: CDK6-CYCLIN D3 (Homo sapiens)
Sequence (Q00534 whole entry): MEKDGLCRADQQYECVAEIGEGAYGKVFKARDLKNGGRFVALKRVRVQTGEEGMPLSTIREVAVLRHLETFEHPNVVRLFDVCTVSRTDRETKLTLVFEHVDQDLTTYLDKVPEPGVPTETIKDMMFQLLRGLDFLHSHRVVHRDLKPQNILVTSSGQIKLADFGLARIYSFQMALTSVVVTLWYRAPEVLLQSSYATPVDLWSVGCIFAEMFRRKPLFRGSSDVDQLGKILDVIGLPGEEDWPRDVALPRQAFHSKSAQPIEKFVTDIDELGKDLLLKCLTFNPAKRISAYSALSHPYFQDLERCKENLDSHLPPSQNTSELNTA
Sequence (P30281 whole entry partner): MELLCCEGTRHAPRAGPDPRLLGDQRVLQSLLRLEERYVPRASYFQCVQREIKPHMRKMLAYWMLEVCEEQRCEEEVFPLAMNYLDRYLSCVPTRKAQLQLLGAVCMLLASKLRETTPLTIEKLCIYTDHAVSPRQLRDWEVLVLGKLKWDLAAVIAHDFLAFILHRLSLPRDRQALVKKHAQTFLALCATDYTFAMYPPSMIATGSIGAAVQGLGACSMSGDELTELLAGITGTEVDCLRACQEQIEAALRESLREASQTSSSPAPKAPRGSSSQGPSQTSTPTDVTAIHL
Test: CDK protein kinase inhibition by ADP-Glo assay, CDK6-CYCLIN D3
Format: biochemical
Settings: Table 38; fold selectivity for CDK2 over CDK6, recombinant CDK kinases

# SMILES_NOTATION, TARGET, CDK2 Fold selectivity against CDK6
data = [
    ("O=C1NC2CC(COc3cc(ccn3)Nc3cc(n[nH]3)C3C[C@@H](F)[C@H](C3)O1)C2", "CDK6-CYCLIN D3 (Homo sapiens)", "E (E, <20)"),
    ("O=C1NC2CC(COc3cc(ccn3)Nc3cc(n[nH]3)C3C[C@H](F)[C@@H](C3)O1)C2", "CDK6-CYCLIN D3 (Homo sapiens)", "E (E, <20)"),
    ("O=C1NC2CC(COc3cc(ccn3)Nc3[nH]nc(c3F)C3C[C@@H](F)[C@H](C3)O1)C2", "CDK6-CYCLIN D3 (Homo sapiens)", "B (B, >100 and ≤500)"),
    ("C[C@H]1CC(F)(F)COc2cc(ccn2)Nc2[nH]nc(c2F)[C@H]2CC[C@H](C2)OC(=O)N1", "CDK6-CYCLIN D3 (Homo sapiens)", "B (B, >100 and ≤500)"),
    ("O=C1NC2CC(COc3cc(ccn3)Nc3[nH]nc(c3F)C3C[C@H](F)[C@@H](C3)O1)C2", "CDK6-CYCLIN D3 (Homo sapiens)", "E (E, <20)"),
]

---

Target: CDK9-CYCLIN T1 (Homo sapiens)
Sequence (P50750 whole entry): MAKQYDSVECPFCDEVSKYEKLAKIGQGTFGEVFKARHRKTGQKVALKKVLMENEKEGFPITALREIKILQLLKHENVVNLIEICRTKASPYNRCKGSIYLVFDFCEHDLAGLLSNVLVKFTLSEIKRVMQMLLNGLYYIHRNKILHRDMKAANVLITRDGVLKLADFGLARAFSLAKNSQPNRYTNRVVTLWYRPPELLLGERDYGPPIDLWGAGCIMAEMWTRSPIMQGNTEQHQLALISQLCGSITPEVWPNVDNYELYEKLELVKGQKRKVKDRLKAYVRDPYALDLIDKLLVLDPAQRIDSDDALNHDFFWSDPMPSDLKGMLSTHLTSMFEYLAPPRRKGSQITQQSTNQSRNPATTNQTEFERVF
Sequence (O60563 whole entry partner): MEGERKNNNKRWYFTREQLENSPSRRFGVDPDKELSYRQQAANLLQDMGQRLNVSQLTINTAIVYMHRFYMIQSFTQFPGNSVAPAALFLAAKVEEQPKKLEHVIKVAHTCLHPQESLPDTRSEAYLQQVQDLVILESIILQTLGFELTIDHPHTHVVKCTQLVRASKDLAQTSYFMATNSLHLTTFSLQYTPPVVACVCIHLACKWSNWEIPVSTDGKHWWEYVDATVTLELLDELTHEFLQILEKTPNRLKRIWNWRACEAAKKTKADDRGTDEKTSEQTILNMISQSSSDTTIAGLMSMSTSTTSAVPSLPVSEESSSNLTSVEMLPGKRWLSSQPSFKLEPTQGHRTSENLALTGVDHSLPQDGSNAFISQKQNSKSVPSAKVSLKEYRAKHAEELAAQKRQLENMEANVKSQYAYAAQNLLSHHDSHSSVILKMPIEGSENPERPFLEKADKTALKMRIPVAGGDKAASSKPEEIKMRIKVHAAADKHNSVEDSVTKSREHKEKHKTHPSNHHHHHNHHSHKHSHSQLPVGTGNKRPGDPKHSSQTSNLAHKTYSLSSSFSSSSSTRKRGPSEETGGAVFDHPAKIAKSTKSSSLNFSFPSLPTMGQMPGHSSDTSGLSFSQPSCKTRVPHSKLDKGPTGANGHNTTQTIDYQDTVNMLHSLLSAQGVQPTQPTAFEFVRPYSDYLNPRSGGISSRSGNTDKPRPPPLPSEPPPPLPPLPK
Assay: CDK protein kinase inhibition by ADP-Glo assay, CDK9-CYCLIN T1
Format: biochemical
Conditions: Table 38; fold selectivity for CDK2 over CDK9, recombinant CDK kinases
MEASURED_METRIC: CDK2 Fold selectivity against CDK9

# SMILES_NOTATION, TARGET, DATA_VALUE
measured = [
    ("O=C1NC2CC(COc3cc(ccn3)Nc3[nH]nc(c3F)C3C[C@H](F)[C@@H](C3)O1)C2", "CDK9-CYCLIN T1 (Homo sapiens)", "E (E, <20)"),
    ("O=C1NC2CC(COc3cc(ccn3)Nc3cc(n[nH]3)C3C[C@H](F)[C@@H](C3)O1)C2", "CDK9-CYCLIN T1 (Homo sapiens)", "E (E, <20)"),
]

---

Attribute: IC50
Target: CDK4-CYCLIN D1 (Homo sapiens, UniProt P11802)
Sequence (P11802 whole entry): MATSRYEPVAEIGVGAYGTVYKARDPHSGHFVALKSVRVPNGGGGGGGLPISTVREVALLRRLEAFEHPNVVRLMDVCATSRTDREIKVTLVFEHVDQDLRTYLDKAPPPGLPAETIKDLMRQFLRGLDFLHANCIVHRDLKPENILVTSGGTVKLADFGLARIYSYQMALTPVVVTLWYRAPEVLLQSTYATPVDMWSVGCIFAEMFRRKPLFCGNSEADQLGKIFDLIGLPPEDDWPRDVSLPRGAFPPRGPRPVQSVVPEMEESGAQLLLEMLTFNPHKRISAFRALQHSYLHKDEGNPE
Sequence (P24385 whole entry partner): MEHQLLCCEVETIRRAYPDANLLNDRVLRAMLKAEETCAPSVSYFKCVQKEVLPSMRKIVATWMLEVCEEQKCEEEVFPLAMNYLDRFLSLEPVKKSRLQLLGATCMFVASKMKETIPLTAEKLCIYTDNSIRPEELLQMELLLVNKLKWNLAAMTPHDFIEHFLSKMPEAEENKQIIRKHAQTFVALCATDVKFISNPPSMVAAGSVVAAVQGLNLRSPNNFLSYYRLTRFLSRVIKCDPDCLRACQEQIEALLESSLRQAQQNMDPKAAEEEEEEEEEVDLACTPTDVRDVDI
Assay: CDK protein kinase inhibition by ADP-Glo assay, CDK4-CYCLIN D1
Format: biochemical
Conditions: ADP-Glo, 1000 μM ATP; Table 21; read-out: CDK4-CYCLIND1, IC50
Experimental: CDK Protein Kinase Inhibition by ADP-Glo Assay This ADP-Glo assay measures ADP formed from a kinase reaction and indirectly quantifies the phosphorylation of peptide substrates by the CDK/cyclin protein complexes. […] At the end of the incubation, the reaction is quenched, and conversion is detected by luminescence using the Promega ADP-Glo™ Kinase Assay kit (catalog #V9102). […]
MEASURED_METRIC: IC50

# MOLECULE, DATA_VALUE
records = [
    ("C[C@H]1CC[C@H](C)Oc2cncc(c2)Nc2cc(n[nH]2)[C@H]2CC[C@H](C2)OC(=O)N1 [Compound 151]", "50 to 100 nM"),
    ("C[C@H]1CCCNC(=O)O[C@@H]2CC[C@@H](C2)c2cc([nH]n2)Nc2cccc(c2)O1 [Compound 157]", "100 to 500 nM"),
    ("C[C@H]1Oc2cc(ccn2)Nc2cc(n[nH]2)[C@H]2CC[C@H](C2)OC(=O)N[C@H]2C[C@H]1C2 [Compound 144]", "100 to 500 nM"),
    ("O=C1NCCCO[C@@H](C(F)(F)F)c2cc(ccn2)Nc2cc(n[nH]2)[C@H]2CC[C@H](C2)O1 [Compound 161]", "10 to 50 nM"),
    ("C[C@@H]1Oc2cncc(c2)Nc2cc(n[nH]2)[C@H]2CC[C@H](C2)OC(=O)N[C@H]2C[C@H]1C2 [Compound 150]", "100 to 500 nM"),
    ("C[C@H]1Oc2cncc(c2)Nc2cc(n[nH]2)[C@H]2CC[C@H](C2)OC(=O)N[C@H]2C[C@H]1C2 [Compound 148]", "50 to 100 nM"),
    ("C[C@@H]1CC[C@H](C)Oc2cncc(c2)Nc2cc(n[nH]2)[C@H]2CC[C@H](C2)OC(=O)N1 [Compound 152]", "50 to 100 nM"),
    ("C[C@H]1CC[C@H](C)Oc2cc(ccn2)Nc2cc(n[nH]2)[C@H]2CC[C@H](C2)OC(=O)N1 [compound 162]", "100 to 500 nM"),
    ("C[C@@H]1Oc2cc(ccn2)Nc2cc(n[nH]2)[C@H]2CC[C@H](C2)OC(=O)N[C@H]2C[C@H]1C2 [compound 146]", "> 500 nM"),
]
